Reported values: Ki for 5-hydroxytryptamine receptor 2B (Homo sapiens, UniProt P41595), one per item.

CN(C)CCCNC(=O)[C@@H]1C[C@@H]2c3cccc4c3c(cn4C)C[C@H]2N(C)C1	0.97 nM

Please state, for each entry, its recorded Ki.
1. CCNC(=O)N(CCCN(C)C)C(=O)[C@@H]1C[C@@H]2c3cccc4c3c(cn4C)C[C@H]2N(C)C1
2. C=CCN1C[C@H](C(=O)N(CCCN(C)C)C(=O)NCC)C[C@@H]2c3cccc4[nH]cc(c34)C[C@H]21

**Result**
["1 nM", "1.4 nM"]

Please state, for each entry, its recorded Ki.
1. COC(OC)[C@@H]1C[C@@H]2c3cccc4c3c(cn4C)C[C@H]2N(C)C1
2. C=CCN1C[C@H](C(=O)N(CCCN2CCOCC2)C(=O)NCC)C[C@@H]2c3cccc4[nH]cc(c34)C[C@H]21

**Result**
1. 0.54 nM
2. 7.1 nM

----------
- TARGET_OR_SYSTEM: 5-HT2B receptor (Homo sapiens, UniProt P41595)
- Sequence (P41595 whole entry): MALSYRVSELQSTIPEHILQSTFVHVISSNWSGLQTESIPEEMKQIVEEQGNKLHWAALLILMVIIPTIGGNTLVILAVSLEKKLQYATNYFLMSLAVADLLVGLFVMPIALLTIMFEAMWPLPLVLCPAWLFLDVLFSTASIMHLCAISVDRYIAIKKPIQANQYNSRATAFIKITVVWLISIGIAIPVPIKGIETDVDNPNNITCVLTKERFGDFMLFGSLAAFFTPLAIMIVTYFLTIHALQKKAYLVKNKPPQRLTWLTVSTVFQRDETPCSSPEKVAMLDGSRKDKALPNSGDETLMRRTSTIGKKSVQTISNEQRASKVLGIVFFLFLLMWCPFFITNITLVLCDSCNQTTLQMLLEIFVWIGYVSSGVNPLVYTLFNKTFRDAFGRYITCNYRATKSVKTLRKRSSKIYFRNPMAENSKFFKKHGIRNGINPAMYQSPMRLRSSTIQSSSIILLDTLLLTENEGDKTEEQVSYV
- PROTOCOL_TEXT: Agonist activity at human 5-HT2B receptor transfected in CHO cell assessed as IP1 production incubated for 30 mins measured by HTRF detection method
- Format: cell-based
- CONDITION_NOTES: human, CHO cells transfected with human 5-HT2B receptor
RECORDED_ENDPOINT: Emax at 0.5 h

CN(C)CCCNC(=O)[C@@H]1C[C@@H]2c3cccc4c3c(cn4C)C[C@H]2N(C)C1	< 12%
C=CCN1C[C@H](C(=O)N(CCCN2CCOCC2)C(=O)NCC)C[C@@H]2c3cccc4[nH]cc(c34)C[C@H]21	106%

Now for another entry.
**Query** Checklist item: Emax at 0.5 h tested on 5-HT2B receptor (Homo sapiens, UniProt P41595), entry C=CCN1C[C@H](C(=O)N(CCCN(C)C)C(=O)NCC)C[C@@H]2c3cccc4[nH]cc(c34)C[C@H]21 [CABERGOLINE] , value?
**Result** 103%

----------
- TARGET_OR_SYSTEM: 5-HT2B receptor (Homo sapiens)
- PROTOCOL_TEXT: Partial agonist activity at human 5-HT2B receptor expressed in HEK293 cells assessed as intracellular calcium mobilization by FLIPR analysis
- Assay type: cell-based
- CONDITION_NOTES: HEK293 cells expressing human 5-HT2B receptor
RECORDED_ENDPOINT: Emax

**Query** Checklist item: Emax tested on 5-HT2B receptor (Homo sapiens), entry CN(C)CCCNC(=O)[C@@H]1C[C@@H]2c3cccc4c3c(cn4C)C[C@H]2N(C)C1 , value?
**Result** < 12%

----------
Provide the recorded EC50 for the entries that follow.
- TARGET_OR_SYSTEM: UniProt:P41595
- PROTOCOL_TEXT: Agonist activity at human 5-HT2B receptor transfected in CHO cell assessed as IP1 production incubated for 30 mins measured by HTRF detection method
- Assay type: cell-based
Give bare numbers, in nM.

C=CCN1C[C@H](C(=O)N(CCCN2CCOCC2)C(=O)NCC)C[C@@H]2c3cccc4[nH]cc(c34)C[C@H]21	13

Now for another entry.
**Query** # EC50 lookup, item C=CCN1C[C@H](C(=O)N(CCCN(C)C)C(=O)NCC)C[C@@H]2c3cccc4[nH]cc(c34)C[C@H]21 [CABERGOLINE]
**Result** 13
